system: human dopamine D1 (Homo sapiens, UniProt P21728)
Construct: purchased BioSignal, Inc. (Montreal, Canada); host or cells: membranes of cells expressing the receptor
Sequence (P21728 whole entry): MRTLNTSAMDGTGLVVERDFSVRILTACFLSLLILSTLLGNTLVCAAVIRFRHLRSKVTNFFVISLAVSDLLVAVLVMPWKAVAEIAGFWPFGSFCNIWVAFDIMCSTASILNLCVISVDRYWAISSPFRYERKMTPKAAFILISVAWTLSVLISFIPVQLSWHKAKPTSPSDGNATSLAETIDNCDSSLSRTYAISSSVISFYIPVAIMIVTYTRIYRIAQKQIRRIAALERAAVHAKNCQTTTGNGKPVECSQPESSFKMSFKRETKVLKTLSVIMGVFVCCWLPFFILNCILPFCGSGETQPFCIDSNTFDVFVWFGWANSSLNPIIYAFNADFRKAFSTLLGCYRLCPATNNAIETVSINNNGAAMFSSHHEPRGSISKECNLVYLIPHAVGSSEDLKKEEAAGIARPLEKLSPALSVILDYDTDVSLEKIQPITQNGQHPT
test_method_notes: Radioligand binding, dopamine D1 receptor
test_settings: Table 9; read-out: hD1 Ki
Description: Other receptors: Cell membranes expressing human dopamine D1, D2, D4 and rat D3 receptors were purchased through BioSignal, Inc. (Montreal, Canada). […] Binding data were analyzed using nonlinear regression and statistical techniques available in the GraphPAD Prism package (San Diego, CA). […]
I'd be grateful if you could share measured pKi for these entries.
Answers are plain numbers, as −log10 of the molar value.

Below, each entry is followed by its recorded pKi result.
CN(C)c1cc(Nc2ccc(Cl)c(Cl)c2)nc(Nc2ccccc2)n1 = 6.22
O=C1C(=Nc2cccc(Cl)c2)c2ccccc2N1c1ccccc1 = 5.67
Cc1ccc(Nc2cc(N(C)C)nc(N(C)CCc3c[nH]c4ccccc34)n2)cc1 = 7.22
O=C1C(=Nc2ccc(Br)cc2)c2ccccc2N1c1ccccc1 = 5.60
CN(CCc1c[nH]c2ccccc12)c1nc(Nc2ccc(F)c(F)c2)cc(N2CCCCC2)n1 = 6.46

Batch of 4 compounds: report pKi for each.
1. Cc1ccc(Nc2cc(N3CCCCC3)nc(N3CCN(c4ncccc4C(F)(F)F)CC3)n2)cc1
2. O=C1C(=Nc2ccc(Cl)cc2)c2ccccc2N1c1ccccc1
3. Cc1ccc(Nc2cc(N3CCCCC3)nc(N(C)CCc3c[nH]c4ccccc34)n2)cc1
4. O=C1C(=Nc2ccc(C(F)(F)F)cc2)c2ccccc2N1c1ccccc1

1: 6.54; 2: 4.60; 3: 7.10; 4: 5.36

Batch of 2 compounds: report pKi for each.
1. COc1cccc(Nc2cc(N3CCCCC3)nc(N(C)CCc3c[nH]c4ccccc34)n2)c1
2. Cc1ccc(Nc2cc(N3CCCCC3)nc(N(C)CCc3ccccc3)n2)cc1

1: 6.29; 2: 6.89

###

system: human GAL3 receptor (Homo sapiens, UniProt O60755)
Construct: expressed in transfected cells
Sequence (O60755 whole entry): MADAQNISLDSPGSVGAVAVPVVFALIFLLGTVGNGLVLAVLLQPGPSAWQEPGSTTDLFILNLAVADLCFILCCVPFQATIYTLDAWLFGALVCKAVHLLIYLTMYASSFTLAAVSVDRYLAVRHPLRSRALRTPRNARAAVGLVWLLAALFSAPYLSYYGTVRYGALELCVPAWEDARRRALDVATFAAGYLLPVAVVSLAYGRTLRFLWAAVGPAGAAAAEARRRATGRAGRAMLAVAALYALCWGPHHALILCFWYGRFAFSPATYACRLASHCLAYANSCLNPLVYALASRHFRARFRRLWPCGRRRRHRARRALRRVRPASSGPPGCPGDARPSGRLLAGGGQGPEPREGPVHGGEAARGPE
test_method_notes: Radioligand binding at cloned human GAL3 receptor
test_settings: pyrimidines, cloned human receptor; read-out: Ki GalR3
Procedure: The present invention provides for a method of determining the binding affinity of a GAL3 antagonist, wherein the GAL3 antagonist is dissolved in a "suitable solvent". […] The binding properties of the pyrimidines of the present invention were evaluated at the cloned human galanin receptors, GAL1, GAL2, and GAL3, using protocols described herein. […] Binding data were analyzed using nonlinear regression and statistical techniques available in the GraphPAD Prism package (San Diego, CA). […]
Quick rule for you: Ki under 100 nM gets Y, anything else gets N.

Solved entries (count: 6):
CN(C)c1cc(Nc2cccc(C(F)(F)F)c2)nc(N2CCN(c3ccccn3)CC2)n1 = Y
Cc1ccc(Nc2cc(N3CCCCC3)nc(N3CCOC(c4ccccc4)C3)n2)cc1 (stereo not shown) = N
CCCCCCCc1ccc(Nc2cc(N(C)C)nc(N3CCN(c4ccccn4)CC3)n2)cc1 = Y
Cc1ccc(Nc2cc(N3CCCCC3)nc(N3CCCc4ccccc43)n2)cc1 = N
Cc1ccc(Nc2cc(N(C)C)nc(N3CCN(c4ccc(C(N)=O)cn4)CC3)n2)cc1 = N
Cc1ccc(Nc2cc(N(C)C)nc(NCCc3ccccc3)n2)cc1 = N

Hello, is Ki of the following compound strictly smaller than 100 nM? Cc1ccc(Nc2cc(N(C)C)nc(N3CCOC(c4ccccc4)C3)n2)cc1 (stereo not shown) N

###

system: 5HT transporter (Rattus norvegicus)
Sequence (P31652 whole entry): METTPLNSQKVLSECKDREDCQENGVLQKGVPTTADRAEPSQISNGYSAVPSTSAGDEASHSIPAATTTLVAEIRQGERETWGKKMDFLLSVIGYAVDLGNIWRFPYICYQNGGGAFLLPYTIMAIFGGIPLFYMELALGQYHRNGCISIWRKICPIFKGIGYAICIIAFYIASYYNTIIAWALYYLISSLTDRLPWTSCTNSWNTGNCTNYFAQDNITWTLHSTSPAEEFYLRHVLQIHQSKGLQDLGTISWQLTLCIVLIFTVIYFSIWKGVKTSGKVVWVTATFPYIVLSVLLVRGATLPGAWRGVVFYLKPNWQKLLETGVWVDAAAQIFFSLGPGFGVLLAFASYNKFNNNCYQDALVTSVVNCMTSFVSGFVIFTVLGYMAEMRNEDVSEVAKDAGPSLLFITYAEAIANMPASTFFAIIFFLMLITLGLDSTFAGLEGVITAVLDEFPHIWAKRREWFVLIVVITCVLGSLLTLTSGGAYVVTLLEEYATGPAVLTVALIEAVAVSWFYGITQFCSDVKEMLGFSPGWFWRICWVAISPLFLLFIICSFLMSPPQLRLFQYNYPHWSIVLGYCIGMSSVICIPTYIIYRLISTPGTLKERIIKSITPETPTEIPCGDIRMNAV
test_method_notes: Binding at native 5HT transporter
test_settings: Table 8; Ki r5HT Uptk divided by Ki hGAL3
I'd be grateful if you could share measured selectivity ratio r5HT Uptk for these entries.

Below, each entry is followed by its recorded selectivity ratio r5HT Uptk result.
Cc1ccc(Nc2cc(N3CCCCC3)nc(N3CCN(c4ncccc4C(F)(F)F)CC3)n2)cc1 = >100
Cc1ccc(Nc2cc(N3CCCCC3)nc(N(C)CCc3c[nH]c4ccccc34)n2)cc1 = 18
Cc1ccc(Nc2cc(N3CCCCC3)nc(N(C)CCc3ccccc3)n2)cc1 = >100
CN(C)c1cc(Nc2ccc(Cl)c(Cl)c2)nc(Nc2ccccc2)n1 = >100
CN(CCc1c[nH]c2ccccc12)c1nc(Nc2ccc(F)c(F)c2)cc(N2CCCCC2)n1 = 24

Batch of 5 molecules: report selectivity ratio r5HT Uptk for each.
1. COC[C@@H]1[C@@H](c2ccccc2)OCCN1c1nc(Nc2ccc(C)cc2)cc(N2CCCCC2)n1
2. O=C1C(=Nc2cccc(C(F)(F)F)c2)c2ccccc2N1c1ccccc1
3. O=C1C(=Nc2ccc(Cl)cc2)c2ccccc2N1c1ccccc1
4. O=C1C(=Nc2ccc(Br)cc2)c2ccccc2N1c1ccccc1
5. Cc1ccc(Nc2cc(N(C)C)nc(N(C)CCc3c[nH]c4ccccc34)n2)cc1

1. >100
2. >100
3. >100
4. >100
5. 10

###

system: human GAL3 receptor (Homo sapiens)
Construct: expressed in transfected cells
test_method_notes: Radioligand binding at cloned human GAL3 receptor
test_settings: pyrimidines, cloned human receptor; read-out: Ki GalR3
measurement_type: pKi
One number for each entry, as −log10 of the molar value.

Below, each entry is followed by its recorded pKi result.
COc1ccccc1CCNc1nc(Nc2ccc(C)cc2)cc(N(C)C)n1 = 6.74
Cc1ccc(Nc2cc(N(C)C)nc(N3CCN(c4ncccc4C(F)(F)F)CC3)n2)cc1 = 7.41
CN(CCc1c[nH]c2ccccc12)c1nc(Nc2cccc(F)c2)cc(N2CCCCC2)n1 = 7.27

Batch of 8 compounds: report pKi for each.
1. CN(C)c1cc(Nc2cccc(F)c2)nc(Nc2ccccc2)n1
2. CN(C)c1cc(Nc2ccc(Cl)c(Cl)c2)nc(N(C)CCc2c[nH]c3ccccc23)n1
3. COc1ccc2[nH]cc(CCNc3nc(Nc4ccc(C)cc4)cc(N4CCCCC4)n3)c2c1
4. CN(C)c1cc(NC2C3CC4CC(C3)CC2C4)nc(N2CCN(Cc3ccccc3)CC2)n1 (centres unmarked) [Example 137]
5. CN(C)c1cc(Nc2cccc(F)c2)nc(N2CCN(c3ccccn3)CC2)n1
6. CN(C)c1cc(Nc2ccc(Cl)c(Cl)c2Cl)nc(N2CCN(Cc3ccccc3)CC2)n1
7. COc1cc2c(cc1OC)CN(c1nc(Nc3ccc(C)cc3)cc(N3CCCCC3)n1)CC2
8. CN(C)c1cc(NC2CCc3ccccc3C2)nc(N2CCN(Cc3ccccc3)CC2)n1 (centres unmarked)

1. 6.44
2. 7.39
3. 6.25
4. 6.91
5. 6.34
6. 7.28
7. 6.56
8. 6.93

###

system: human α2B adrenoceptor (Homo sapiens)
Construct: expressed in transfected cells
test_method_notes: Radioligand binding, α2B adrenergic receptor
test_settings: Table 10; Ki hα2B divided by Ki hGAL3
measurement_type: selectivity ratio hα2B

O=C1C(=Nc2ccc(C(F)(F)F)cc2)c2ccccc2N1c1ccccc1 = >100
O=C1C(=Nc2cccc(Cl)c2)c2ccccc2N1c1ccccc1 = >100
O=C1C(=Nc2ccc(Br)cc2)c2ccccc2N1c1ccccc1 = >100
O=C1C(=Nc2cccc(C(F)(F)F)c2)c2ccccc2N1c1ccccc1 = >100

We now examine a further compound.
Sample COC[C@@H]1[C@@H](c2ccccc2)OCCN1c1nc(Nc2ccc(C)cc2)cc(N2CCCCC2)n1 — what was its selectivity ratio hα2B? >100

###

system: human dopamine D2 (Homo sapiens)
Construct: purchased BioSignal, Inc. (Montreal, Canada)
Sequence (P14416 whole entry): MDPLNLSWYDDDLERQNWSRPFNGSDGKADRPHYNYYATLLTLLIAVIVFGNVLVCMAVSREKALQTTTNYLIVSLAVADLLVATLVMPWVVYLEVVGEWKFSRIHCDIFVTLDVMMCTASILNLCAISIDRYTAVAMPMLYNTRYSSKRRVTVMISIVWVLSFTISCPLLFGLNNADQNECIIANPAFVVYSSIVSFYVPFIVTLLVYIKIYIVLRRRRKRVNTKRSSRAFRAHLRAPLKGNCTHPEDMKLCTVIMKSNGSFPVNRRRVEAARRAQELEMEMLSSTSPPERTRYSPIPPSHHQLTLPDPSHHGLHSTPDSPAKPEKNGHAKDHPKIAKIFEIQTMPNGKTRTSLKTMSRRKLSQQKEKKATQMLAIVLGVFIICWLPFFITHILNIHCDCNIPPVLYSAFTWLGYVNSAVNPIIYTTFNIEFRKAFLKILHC
test_method_notes: Radioligand binding, dopamine D2 receptor
test_settings: Table 10; Ki hD2 divided by Ki hGAL3
Experimental: Other receptors: Cell membranes expressing human dopamine D1, D2, D4 and rat D3 receptors were purchased through BioSignal, Inc. (Montreal, Canada). […] Binding data were analyzed using nonlinear regression and statistical techniques available in the GraphPAD Prism package (San Diego, CA). […]
measurement_type: selectivity ratio hD2

Below, each entry is followed by its recorded selectivity ratio hD2 result.
O=C1C(=Nc2ccc(Cl)cc2)c2ccccc2N1c1ccccc1 = >100
COc1cccc(Nc2cc(N3CCCCC3)nc(N(C)CCc3c[nH]c4ccccc34)n2)c1 = 21
CN(CCc1c[nH]c2ccccc12)c1nc(Nc2ccc(F)c(F)c2)cc(N2CCCCC2)n1 = 30
O=C1C(=Nc2ccc(Br)cc2)c2ccccc2N1c1ccccc1 = >100
Cc1ccc(Nc2cc(N3CCCCC3)nc(N(C)CCc3c[nH]c4ccccc34)n2)cc1 = 9
O=C1C(=Nc2cccc(C(F)(F)F)c2)c2ccccc2N1c1ccccc1 = >100
CN(C)c1cc(Nc2ccc(Cl)c(Cl)c2)nc(Nc2ccccc2)n1 = >100
Cc1ccc(Nc2cc(N3CCCCC3)nc(N3CCN(c4ncccc4C(F)(F)F)CC3)n2)cc1 = >100

Sample O=C1C(=Nc2cccc(Cl)c2)c2ccccc2N1c1ccccc1 — what was its selectivity ratio hD2? >100

###

I'd be grateful if you could share measured pKi for these entries.
system: human α2B adrenoceptor (Homo sapiens, UniProt P18089)
Construct: expressed in transfected cells
Sequence (P18089 whole entry): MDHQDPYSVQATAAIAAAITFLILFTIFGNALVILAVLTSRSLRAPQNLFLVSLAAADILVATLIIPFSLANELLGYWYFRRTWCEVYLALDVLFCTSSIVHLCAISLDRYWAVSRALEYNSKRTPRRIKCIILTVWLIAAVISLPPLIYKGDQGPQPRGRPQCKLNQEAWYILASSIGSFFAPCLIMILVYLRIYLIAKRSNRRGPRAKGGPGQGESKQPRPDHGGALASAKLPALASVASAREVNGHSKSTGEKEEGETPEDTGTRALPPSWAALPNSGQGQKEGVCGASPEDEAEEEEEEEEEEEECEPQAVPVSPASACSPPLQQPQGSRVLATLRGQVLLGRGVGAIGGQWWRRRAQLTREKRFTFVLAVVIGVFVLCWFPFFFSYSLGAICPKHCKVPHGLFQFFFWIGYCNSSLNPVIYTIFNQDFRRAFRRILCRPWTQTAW
test_method_notes: Radioligand binding, α2B adrenergic receptor
test_settings: Table 9; read-out: hα2B Ki
Protocol: Other receptors: Cell membranes expressing human dopamine D1, D2, D4 and rat D3 receptors were purchased through BioSignal, Inc. (Montreal, Canada). […] Binding data were analyzed using nonlinear regression and statistical techniques available in the GraphPAD Prism package (San Diego, CA). […]
Answers are plain numbers, as −log10 of the molar value.

Cc1ccc(Nc2cc(N3CCCCC3)nc(N(C)CCc3c[nH]c4ccccc34)n2)cc1 [Example 11] = 4.99
Cc1ccc(Nc2cc(N(C)C)nc(N(C)CCc3c[nH]c4ccccc34)n2)cc1 [Example 77] = 5.11
CN(CCc1c[nH]c2ccccc12)c1nc(Nc2ccc(F)c(F)c2)cc(N2CCCCC2)n1 [Example 15] = 4.61
COc1cccc(Nc2cc(N3CCCCC3)nc(N(C)CCc3c[nH]c4ccccc34)n2)c1 [Example 17] = 4.41
Cc1ccc(Nc2cc(N3CCCCC3)nc(N(C)CCc3ccccc3)n2)cc1 [Example 22] = 5.24
Cc1ccc(Nc2cc(N3CCCCC3)nc(N3CCN(c4ncccc4C(F)(F)F)CC3)n2)cc1 [Example 34] = 4.81

Sample O=C1C(=Nc2cccc(Cl)c2)c2ccccc2N1c1ccccc1 [Example 94] — what was its pKi? 4.34

These data points were gathered from patent EP2140864A2.
